Measured STRO-1 Expression (%) after 96 h, listed per entry for reference.
# Tested on: hMSCs
# RUN DESCRIPTION: Loss of stemness: STRO-1 immunostaining of hMSCs cultured with compounds in solution
# Format: cell-based, Human
# CONDITION LABEL: compound in cell culture media solution, 400 ng/mL added every 24 h, 96 h
No end group written: not given here.

SEQUENCE ENTRY: VPQAAEPLPMLYYDKGVVTYEQLSNAAVRSDKGVVTY (also: cyclic, ring not given here) [SEQ ID NO: 723]
STRO-1 Expression (%) after 96 h: 20%

SEQUENCE ENTRY: VPTMMSNITTQIMRIKPHQGQHIGEMSMMQHNDEYDKVV (also: cyclic, ring not given here) [SEQ ID NO: 725]
STRO-1 Expression (%) after 96 h: 20%

SEQUENCE ENTRY: APTLLNAISMLYFNDKQQIILKKYRLLVVRNDKQQII (also: cyclic, ring type not given here) [SEQ ID NO: 716]
STRO-1 Expression (%) after 96 h: 20%

src = patent US20180305408A1
